Reported Ki on Adenosine receptor A1 (Rattus norvegicus) for assorted molecules, compiled from publications.
Sequence (P25099 whole entry): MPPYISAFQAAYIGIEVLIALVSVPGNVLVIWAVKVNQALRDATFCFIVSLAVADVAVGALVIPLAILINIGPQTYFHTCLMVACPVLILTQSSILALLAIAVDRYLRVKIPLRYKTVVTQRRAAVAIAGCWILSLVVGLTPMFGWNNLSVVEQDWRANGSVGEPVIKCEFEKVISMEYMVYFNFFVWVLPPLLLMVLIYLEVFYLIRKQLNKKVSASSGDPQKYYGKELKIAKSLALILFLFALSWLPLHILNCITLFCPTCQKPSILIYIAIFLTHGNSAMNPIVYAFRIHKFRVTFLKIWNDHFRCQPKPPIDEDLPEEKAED
Use Ki to assign classes; range list: bucket A = under 60 nM, bucket B = from 60 nM up to 500 nM, bucket C = 500 nM and over

{"MOLECULE": "CCCCCCCCNC(=O)Nc1ncnc2c1ncn2[C@@H]1O[C@H](C(=O)NCC)[C@@H](O)[C@H]1O", "LABEL VALUE": "bucket B"}
{"MOLECULE": "CC(C)Cc1ccc(CCn2ncc3c2nc(N)n2nc(-c4ccco4)nc32)cc1", "LABEL VALUE": "bucket C"}
{"MOLECULE": "C[C@H](c1ccccc1)n1c2ccccc2c2c(N)nc(-c3cccs3)nc21", "LABEL VALUE": "bucket A"}
{"MOLECULE": "Cc1nn(C)c2c(=O)[nH]c(-c3ccc(Cl)cc3N)nc12", "LABEL VALUE": "bucket B"}
{"MOLECULE": "CN1C(=O)N2CCCN=C2c2c1nc(Cl)n2C", "LABEL VALUE": "bucket C"}
{"MOLECULE": "CC(C)C(O)(C#Cc1cn2nc(-c3ccco3)nc2c(N)n1)C(C)C", "LABEL VALUE": "bucket A"}
{"MOLECULE": "CCNC(=O)[C@H]1O[C@@H](n2cnc3c(NC(=O)Nc4ccccc4F)ncnc32)[C@H](O)[C@@H]1O", "LABEL VALUE": "bucket B"}
{"MOLECULE": "Nc1nc2c(cnn2Cc2ccc(O)cc2)c2nc(-c3ccco3)nn12", "LABEL VALUE": "bucket C"}
{"MOLECULE": "O=C(Nc1nc(-c2ccccc2)cs1)c1ccc(Cl)cc1Cl", "LABEL VALUE": "bucket A"}
{"MOLECULE": "CCCCCOc1nc(N)c2ncn(C3O[C@H](CO)[C@@H](O)[C@H]3O)c2n1 (stereo not given in full)", "LABEL VALUE": "bucket B"}
{"MOLECULE": "Cn1c(=O)c2c(nc3n2CCCN3c2ccc(OCCN3CCCC3)cc2)n(C)c1=O", "LABEL VALUE": "bucket C"}
{"MOLECULE": "NC[C@@H]1CC[C@H]2CN(c3cc(N)n4nc(-c5ccco5)nc4n3)CCN2C1", "LABEL VALUE": "bucket C"}
{"MOLECULE": "CCCN(CCC)S(=O)(=O)c1ccc(-c2nc3[nH]c(=O)n(CCC)c(=O)c3[nH]2)cc1", "LABEL VALUE": "bucket A"}
{"MOLECULE": "CC[C@H](COc1nc(N)c2ncn(C3O[C@H](CO)[C@@H](O)[C@H]3O)c2n1)c1ccccc1 (stereo not given in full)", "LABEL VALUE": "bucket C"}
{"MOLECULE": "OC[C@H]1OC(n2cnc3c(NCC4c5ccccc5CCc5ccccc54)ncnc32)[C@H](O)[C@@H]1O (stereo not given in full)", "LABEL VALUE": "bucket B"}
